Recorded AC50 for the following compounds
- measuredTarget: Glutamate receptor ionotropic, NMDA 1 (Rattus norvegicus, UniProt P35439); further: assay procedure not described here

See these solved cases before continuing.
[[record]]
compound = "CC[C@H](C)C(=O)O[C@H]1C[C@H](O)C=C2C=C[C@H](C)[C@H](CC[C@@H](O)C[C@@H](O)CC(=O)O)[C@H]21"
endpointlabel = "AC50"
result = "> 10 µM"

[[record]]
compound = "NC(=O)C[S+]([O-])C(c1ccccc1)c1ccccc1 (stereo unspecified)"
endpointlabel = "AC50"
result = "> 10 µM"

[[record]]
compound = "CN1CCC2=C(C1)C(c1ccccc1)c1ccccc12 (stereo unspecified)"
endpointlabel = "AC50"
result = "> 10 µM"

[[record]]
compound = "CC(=O)OCC(=O)[C@@]12OC3(CCCC3)O[C@@H]1C[C@H]1[C@@H]3CCC4=CC(=O)C=C[C@]4(C)[C@@]3(F)[C@@H](O)C[C@@]12C [AMCINONIDE]"
endpointlabel = "AC50"
result = "> 10 µM"

[[record]]
compound = "C[C@]12CCC(=O)C=C1CC[C@@H]1[C@@H]2CC[C@@]2(C)[C@H]1CC[C@]2(C)O"
endpointlabel = "AC50"
result = "> 30 µM"


Data point: COC(=O)N[C@H](C(=O)N[C@@H](Cc1ccccc1)[C@@H](O)CN(Cc1ccc(-c2ccccn2)cc1)NC(=O)[C@@H](NC(=O)OC)C(C)(C)C)C(C)(C)C ; AC50 = > 10 µM

Data point: C1=Cc2cccc(OCC3CNCCO3)c2C1 (stereo unspecified) ; AC50 = > 30 µM

Data point: C=C1C[C@@H]2[C@H](CC[C@]3(C)C(=O)CC[C@@H]23)[C@@]2(C)C=CC(=O)C=C12 ; AC50 = > 10 µM

Data point: CCOC(=O)[C@H](CCc1ccccc1)N[C@@H](C)C(=O)N1CCC[C@H]1C(=O)O ; AC50 = > 10 µM

Data point: CC(=O)NS(=O)(=O)c1ccc(N)cc1 [SULFACETAMIDE] ; AC50 = > 10 µM

Data point: COc1cc(Nc2c(C#N)cnc3cc(OCCCN4CCN(C)CC4)c(OC)cc23)c(Cl)cc1Cl ; AC50 = > 10 µM

Data credit: ChEMBL document CHEMBL5291721
